From: patent US20170037028A1

experimental_system: GLUT1 (Homo sapiens)
Sequence (P11166 1-492): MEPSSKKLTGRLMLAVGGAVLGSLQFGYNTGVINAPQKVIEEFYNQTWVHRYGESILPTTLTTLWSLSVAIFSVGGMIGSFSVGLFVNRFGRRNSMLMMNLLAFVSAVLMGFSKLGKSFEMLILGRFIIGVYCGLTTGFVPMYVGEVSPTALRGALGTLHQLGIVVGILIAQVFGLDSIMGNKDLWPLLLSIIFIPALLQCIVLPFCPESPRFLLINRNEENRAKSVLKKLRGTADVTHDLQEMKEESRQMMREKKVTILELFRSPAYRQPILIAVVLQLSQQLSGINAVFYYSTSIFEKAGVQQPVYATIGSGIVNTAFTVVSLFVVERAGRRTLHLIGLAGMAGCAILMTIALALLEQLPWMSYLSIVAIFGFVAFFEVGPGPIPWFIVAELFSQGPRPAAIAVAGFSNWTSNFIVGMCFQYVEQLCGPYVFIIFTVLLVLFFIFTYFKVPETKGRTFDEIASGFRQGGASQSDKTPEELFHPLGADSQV
assay_procedure: Indirect measurement of GLUT1 activity by quantification of intracellular ATP levels (glucose induced ATP increase)
Assay type: cell-based
Set-up: endogenous in cells; host or cells: DLD1 or CHO-K1
condition_parameters: read-out: IC50 regarding glucose induced ATP increase (GLUT1 inhibition)
Field: pIC50. Provide a value for each of the molecules that follow.
Answers are plain numbers, as −log10 of the molar value.

Sample answers from the record:
{"molecule": "Cc1c(NC(=O)c2cc(C(N)=O)nc3cc(F)ccc23)c(C(F)(F)F)nn1Cc1ccc(S(C)(=O)=O)cc1 [Example 1429]", "recorded_metric": "pIC50", "numeric_result": 7.53}
{"molecule": "Cc1nn(Cc2ccc(F)cc2F)c(C)c1NC(=O)c1cc(C(F)(F)F)nc2ccc(Br)cc12 [Example 41]", "recorded_metric": "pIC50", "numeric_result": 7.52}

Please examine the following record next.
Hi! What's the reported pIC50 for Cc1nn(Cc2ccc(F)cc2)c(C)c1NC(=O)c1cc(C2CC2)nc2c(F)cccc12 [Example 40] on GLUT1 (Homo sapiens)? 7.52

---

Field: IC50. Provide a value for each of the compounds that follow.
experimental_system: GLUT1 (Homo sapiens)
assay_procedure: Indirect measurement of GLUT1 activity by quantification of intracellular ATP levels (glucose induced ATP increase)
Assay type: cell-based
Set-up: endogenous in cells; host or cells: DLD1 or CHO-K1
condition_parameters: read-out: IC50 regarding glucose induced ATP increase (GLUT1 inhibition)
One number for each entry, in nM.

{"compound": "COc1cc(C(=O)Nc2c(C)nn(Cc3ncccc3C#N)c2C)c2ccccc2n1 [Example 1102]", "u": "nM", "IC50": 43.5}
{"compound": "Cc1nn(Cc2ccc(C#N)cc2)c(C)c1NC(=O)c1cc(S(=O)(=O)N(C)C)nc2ccccc12 [Example 1577]", "u": "nM", "IC50": 9.7}
{"compound": "Cc1cc(Cn2nc(C)c(NC(=O)c3cc(C(N)=O)nc4cc(F)c(Cl)cc34)c2C)no1 [Example 412]", "u": "nM", "IC50": 2.1}
{"compound": "Cc1nn(Cc2ccc(C(F)(F)F)cc2)c(C)c1NC(=O)c1cc(C(N)=O)nc2cccc(F)c12 [Example 1600]", "u": "nM", "IC50": 3.5}
{"compound": "CCOC(=O)N=S(C)(=O)c1ccc(Cn2nc(C)c(NC(=O)c3cc(C(F)(F)F)nc4ccc(Br)cc34)c2C)cc1 (racemic) [Example 1433]", "u": "nM", "IC50": 717}
{"compound": "CNC(=O)c1nc(Cn2nc(C)c(NC(=O)c3cc(C(F)(F)F)nc4ccc(Br)cc34)c2C)no1 [Example 404]", "u": "nM", "IC50": 1.4}
{"compound": "Cc1nn(Cc2ccccc2C#N)c(C)c1NC(=O)c1cc(C(F)(F)F)nc2ccc(Br)cc12 [Example 6]", "u": "nM", "IC50": 4.7}
{"compound": "COc1ccc(Cn2nc(C)c(NC(=O)c3cc(C(F)(F)F)nc4ccc(Br)cc34)c2C)cn1 [Example 1025]", "u": "nM", "IC50": 2.8}
{"compound": "Cc1nn(Cc2c(F)cc(C#N)cc2F)c(C)c1NC(=O)c1cc(C(N)=O)nc2ccc(Br)cc12 [Example 394]", "u": "nM", "IC50": 2.6}
{"compound": "Cc1nn(Cc2ccc(C(=O)NCc3ccc(-c4nnn[nH]4)cc3)cc2)c(C)c1NC(=O)c1cc(C(F)(F)F)nc2ccc(Br)cc12 [Example 1060]", "u": "nM", "IC50": 15.8}

List the reported IC50 of each compound below.
1. Cc1c(NC(=O)c2cc(C(F)(F)F)nc3c(Cl)cc(Cl)cc23)c(C(F)(F)F)nn1Cc1ccc(F)cc1F [Example 205]
2. COc1ccc(CCn2nc(C)c(NC(=O)c3cc(C(N)=O)nc4cc(F)c(Cl)cc34)c2C)cc1 [Example 1346]
3. Cc1cc(C(=O)Nc2c(C)nn(Cc3ccc(F)cc3)c2C)c2cccc(C#N)c2n1 [Example 1308]
4. Cc1nn(Cc2cc(C(C)C)no2)c(C)c1NC(=O)c1cc(C(N)=O)nc2cc(F)ccc12 [Example 1563]
5. CNC(=O)c1ccc(Cn2nc(C)c(NC(=O)c3cc(C(F)(F)F)nc4ccc(Br)cc34)c2C)nc1 [Example 1070]

[613, 10.6, 16900, 35.5, 20.2]

List the reported IC50 of each compound below.
1. CCCS(=O)(=O)N1CCC(Cn2nc(C)c(NC(=O)c3cc(C(N)=O)nc4ccccc34)c2C)CC1 [Example 1510]
2. CCc1cc(Cn2nc(C(F)(F)F)c(NC(=O)c3cc(C(N)=O)nc4ccccc34)c2C)on1 [Example 1555]

1. 20
2. 18.4

---

Field: pIC50. Provide a value for each of the compounds that follow.
experimental_system: GLUT1 (Homo sapiens)
Sequence (P11166 1-492): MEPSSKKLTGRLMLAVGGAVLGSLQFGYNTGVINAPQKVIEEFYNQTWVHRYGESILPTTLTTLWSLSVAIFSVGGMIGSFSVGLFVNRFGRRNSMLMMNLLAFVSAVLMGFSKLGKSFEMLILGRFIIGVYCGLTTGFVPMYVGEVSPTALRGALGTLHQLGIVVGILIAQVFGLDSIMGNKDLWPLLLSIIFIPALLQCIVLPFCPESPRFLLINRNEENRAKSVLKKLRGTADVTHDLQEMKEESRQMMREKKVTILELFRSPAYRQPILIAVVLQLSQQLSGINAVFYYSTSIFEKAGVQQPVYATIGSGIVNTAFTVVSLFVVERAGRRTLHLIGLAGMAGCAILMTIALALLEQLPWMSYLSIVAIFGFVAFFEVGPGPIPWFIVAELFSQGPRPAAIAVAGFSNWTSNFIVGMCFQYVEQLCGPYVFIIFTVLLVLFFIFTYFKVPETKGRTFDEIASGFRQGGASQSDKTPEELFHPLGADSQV
assay_procedure: Indirect measurement of GLUT1 activity by quantification of intracellular ATP levels (glucose induced ATP increase)
Format: cell-based
Design: endogenous in cells; host or cells: DLD1 or CHO-K1
condition_parameters: read-out: IC50 regarding glucose induced ATP increase (GLUT1 inhibition)
One number for each entry, as −log10 of the molar value.

Sample answers from the record:
{"compound": "Cc1nn(Cc2ccc(C(C)O)cc2)c(C)c1NC(=O)c1cc(C(N)=O)nc2ccccc12 (racemic)", "pIC50": 7.34}
{"compound": "Cc1nn(Cc2ccc(C(=O)N3CCC(CO)CC3)cc2)c(C)c1NC(=O)c1cc(C(F)(F)F)nc2ccc(Br)cc12", "pIC50": 7.38}
{"compound": "CNC(=O)N(C)CCNC(=O)c1ccc(Cn2nc(C)c(NC(=O)c3cc(C(F)(F)F)nc4ccc(Br)cc34)c2C)cc1", "pIC50": 8.06}
{"compound": "Cc1cc(C(=O)Nc2c(C)nn(Cc3ccc(F)cc3)c2C)c2ccc(C#N)cc2n1", "pIC50": 4.76}
{"compound": "Cc1nn(Cc2c(F)cccc2F)c(C)c1NC(=O)c1cc(C(F)(F)F)nc2c(Cl)cc(Cl)cc12", "pIC50": 7.90}
{"compound": "Cc1nn(Cc2ccc(C#N)cc2)c(C)c1NC(=O)c1cc(C(N)=O)nc2c(F)cc(Cl)cc12", "pIC50": 8.92}

Please examine the following record next.
Item under review: Cc1nn(Cc2ccc(F)cc2)c(C)c1NC(=O)c1cc(C2CC2)nc2c(Br)cccc12 . Reported pIC50? 7.92

---

experimental_system: GLUT1 (Homo sapiens)
assay_procedure: Indirect measurement of GLUT1 activity by quantification of intracellular ATP levels (glucose induced ATP increase)
Type: cell-based
Design: endogenous in cells; host or cells: DLD1 or CHO-K1
condition_parameters: read-out: IC50 regarding glucose induced ATP increase (GLUT1 inhibition)
recorded_metric: pIC50
Give bare numbers, as −log10 of the molar value.

Sample answers from the record:
{"compound_structure_string": "Cc1nn(Cc2ccc(F)cc2)c(C)c1NC(=O)c1cc(C(C)C)nc2ccc(Br)cc12", "experimental_system": "GLUT1 (Homo sapiens)", "pIC50": 8.55}
{"compound_structure_string": "Cc1c(NC(=O)c2cc(S(=O)(=O)N(C)C)nc3ccccc23)c(C(F)(F)F)nn1Cc1ccc(C#N)cc1", "experimental_system": "GLUT1 (Homo sapiens)", "pIC50": 7.69}

Please examine the following record next.
Item under review: Cc1c(NC(=O)c2cc(C(N)=O)nc3ccccc23)c(C#N)nn1Cc1ccc(F)cc1 . Reported pIC50? 8.57
